- System: Cynomolgus monkey
- RUN PARAMETERS: in vivo, iv, 1 mg/kg
PROPERTY NAME: AUC (ng·h/mL)

CS(=O)(=O)Nc1ccc2c(c1)S(=O)(=O)N=C(C1=C(O)[C@@H]3[C@H]4CC[C@H](C4)[C@@H]3N(Cc3ccc(F)cc3)C1=O)N2
94900
CS(=O)(=O)Nc1ccc2c(c1)S(=O)(=O)N=C(C1=C(O)[C@@H]3[C@H]4CC[C@H](C4)[C@@H]3N(Cc3ccc(F)c(F)c3)C1=O)N2
44800
CS(=O)(=O)Nc1ccc2c(c1)S(=O)(=O)N=C(C1=C(O)[C@@H]3[C@@H]([C@H]4CC[C@@H]3O4)N(Cc3ccc(F)cc3)C1=O)N2
2650

I = CS(=O)(=O)Nc1ccc2c(c1)S(=O)(=O)N=C(C1=C(O)C3C4CCC(C4)C3N(Cc3ccc(F)cc3)C1=O)N2 (racemic; 2b)
II = Cc1cc(CN2C(=O)C(C3=NS(=O)(=O)c4cc(NS(C)(=O)=O)ccc4N3)=C(O)[C@@H]3[C@H]4CC[C@H](C4)[C@@H]32)ccc1F
III = CS(=O)(=O)Nc1ccc2c(c1)S(=O)(=O)N=C(C1=C(O)C3C4CCC(C4)C3N(Cc3ccc(F)cc3)C1=O)N2 (racemic; 2a)
Which order do these items take when sorted by rising AUC? List them. Please list each label once, in the requested order.
I, II, III

----------
- ASSAY REMARKS: in vitro
- RUN PARAMETERS: human, liver microsomes, t1/2
PROPERTY NAME: half-life at 1 µM

Record excerpt, results attached:
CS(=O)(=O)Nc1ccc2c(c1)S(=O)(=O)N=C(C1=C(O)[C@@H]3C4CCC(CC4)[C@@H]3N(Cc3cccs3)C1=O)N2
51 min
CS(=O)(=O)Nc1ccc2c(c1)S(=O)(=O)N=C(C1=C(O)[C@@H]3[C@@H]4CC[C@@H](C4)[C@@H]3N(Cc3ccc(F)c(Cl)c3)C1=O)N2
> 60 min

Now for another entry.
Consider the molecule shown here: CS(=O)(=O)Nc1ccc2c(c1)S(=O)(=O)N=C(C1=C(O)[C@@H]3[C@@H]4CC[C@@H](C4)[C@@H]3N(Cc3ccc(F)c(F)c3F)C1=O)N2 What is its recorded half-life at 1 µM?
> 60 min

----------
- Test system: Cynomolgus monkey
- RUN PARAMETERS: in vivo, po, 1 mg/kg
PROPERTY NAME: AUC (ng·h/mL)

1 = Cc1cc(CN2C(=O)C(C3=NS(=O)(=O)c4cc(NS(C)(=O)=O)ccc4N3)=C(O)[C@@H]3[C@H]4CC[C@H](C4)[C@@H]32)ccc1F
2 = CS(=O)(=O)Nc1ccc2c(c1)S(=O)(=O)N=C(C1=C(O)[C@@H]3[C@H]4CC[C@H](C4)[C@@H]3N(Cc3ccc(F)c(F)c3)C1=O)N2
Among 1 and 2 , which shows a numerically higher AUC result? // respond with label for picked entry
2

P = CS(=O)(=O)Nc1ccc2c(c1)S(=O)(=O)N=C(C1=C(O)C3C4CCC(C4)C3N(Cc3ccc(F)cc3)C1=O)N2 (racemic; 2a)
Q = CS(=O)(=O)Nc1ccc2c(c1)S(=O)(=O)N=C(C1=C(O)C3C4CCC(C4)C3N(Cc3ccc(F)cc3)C1=O)N2 (racemic; 2b)
R = CS(=O)(=O)Nc1ccc2c(c1)S(=O)(=O)N=C(C1=C(O)[C@@H]3[C@@H]([C@H]4CC[C@@H]3O4)N(Cc3ccc(F)cc3)C1=O)N2
S = CS(=O)(=O)Nc1ccc2c(c1)S(=O)(=O)N=C(C1=C(O)[C@@H]3[C@H]4CC[C@H](C4)[C@@H]3N(Cc3ccc(F)cc3)C1=O)N2
Output the entries ranked by AUC from maximum down to minimum. Please list each label once, in the requested order.
S, P, Q, R
(S: 49400 ng·h/mL, P: 30700 ng·h/mL, Q: 1350 ng·h/mL, R: 90 ng·h/mL)
